- study.target: human orexin type 2 receptor (hOX2R) (Homo sapiens (Human))
- Sequence (O43614 whole entry): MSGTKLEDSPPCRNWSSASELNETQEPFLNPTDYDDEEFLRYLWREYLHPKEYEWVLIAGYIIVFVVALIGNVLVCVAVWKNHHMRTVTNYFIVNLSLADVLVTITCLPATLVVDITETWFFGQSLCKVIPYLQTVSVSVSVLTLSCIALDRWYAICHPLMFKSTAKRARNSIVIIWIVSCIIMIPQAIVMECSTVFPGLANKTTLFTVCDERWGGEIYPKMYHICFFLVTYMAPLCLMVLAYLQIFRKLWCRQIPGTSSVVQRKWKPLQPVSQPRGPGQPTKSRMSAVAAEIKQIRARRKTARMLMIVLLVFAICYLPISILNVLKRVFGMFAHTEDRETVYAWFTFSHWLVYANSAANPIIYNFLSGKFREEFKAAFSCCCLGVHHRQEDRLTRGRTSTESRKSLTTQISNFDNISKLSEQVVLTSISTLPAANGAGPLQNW
- method: Measurement of orexin type 2 receptor agonist activity (Experimental Example 2-1, FLIPR TETRA, intracellular Ca2+)
- Type: cell-based
- test.conditions: CHO dhfr- cells expressing hOX2R, FLIPR TETRA, Fluo-4AM; read-out: Emax (%)
observable: Emax (%)

INSERT INTO results (compound, unit_name, result) VALUES
  ('CC(C)OC(=O)N1CCC[C@H](NS(C)(=O)=O)[C@@H]1COC1CCN(c2ccccc2F)CC1 (relative stereo)', '%', 90),
  ('CS(=O)(=O)N[C@H]1CCCN(C(=O)C2CC2)[C@H]1COC1CCN(c2ncccn2)CC1 (relative stereo)', '%', 104),
  ('CC(=O)N1CCC[C@H](NS(C)(=O)=O)[C@@H]1COC1CCC(F)(c2cccc(F)c2)CC1 (relative stereo)', '%', 105),
  ('CS(=O)(=O)N[C@H]1CCCN(C(=O)CC2CC2)[C@H]1COC1CCN(c2ccccc2F)CC1 (relative stereo)', '%', 86),
  ('CS(=O)(=O)N[C@H]1CCCN(C(=O)OC2CC2)[C@H]1COC1CCN(c2ccccc2F)CC1 (relative stereo)', '%', 79),
  ('CCCC(=O)N1CCC[C@H](NS(C)(=O)=O)[C@@H]1COC1CCN(c2ccccc2F)CC1 (relative stereo)', '%', 102),
  ('CS(=O)(=O)N[C@H]1CCCN(C(=O)CC#N)[C@H]1CO[C@H]1CC[C@@H](c2ccccc2)CC1', '%', 106);
